These measurements were taken from patent US12600721B2.

Tested on: TYK2 Pseudokinase (JH2)
Experiment: HEK-Blue IFNα/β reporter assay (SEAP) for profiling TYK2 pseudokinase (JH2) inhibition
Type: cell-based
Conditions: HEK-Blue IFNα/β cells, 1 ng/mL human recombinant IFNα, read-out: IFNα IC50 (TYK2 inhibitory activity)
Procedure: HEK-Blue™ IL-23 and IFNα/β cells with a stably-integrated cytokine receptor and STAT3 or STAT1 express STAT-inducible secreted embryonic alkaline phosphatase (SEAP) reporter gene upon cytokine stimulation. These cells are plated in DMEM (Gibco) containing 10% heat-inactivated FBS (Gibco) and 100 U/mL PenStrep (Gibco) at 37° C. under 5% CO2 conditions for 20-22 hours. […] SEAP induction is measured using the QUANTI Blue™ Solution (InvivoGen) according to the manufacturer's instructions.
pIC50: −log10 of the molar value.
MEASUREMENT_KIND: pIC50

Answered examples (3):
{"STRUCTURE": "[2H]C([2H])([2H])NC(=O)c1nnc(NC(=O)C2CC2)cc1Nc1cccc2c1N(C)Cc1cccnc1-2", "pIC50": "> 7.52"}
{"STRUCTURE": "[2H]C([2H])([2H])NC(=O)c1nnc(NC(=O)C2CC2)cc1Nc1cccc2c1N(C)C([2H])([2H])c1ccc(C)nc1-2", "pIC50": "> 7.52"}
{"STRUCTURE": "[2H]C([2H])([2H])NC(=O)c1cnc(NC(=O)C2CC2)cc1Nc1cccc2c1N(C)Cc1cccnc1-2", "pIC50": "> 7.52"}

Note down pIC50 recorded for `[2H]C([2H])([2H])NC(=O)c1cnc(NC(=O)C2CC2)cc1Nc1cccc2c1N(C)C([2H])([2H])c1cccnc1-2`
> 7.52

Note down pIC50 recorded for `[2H]C([2H])([2H])NC(=O)c1nnc(NC(=O)C2CC2)cc1Nc1cccc2c1N(C)C([2H])([2H])c1ccc(C(F)(F)F)nc1-2`
< 6.00

Note down pIC50 recorded for `[2H]C([2H])([2H])NC(=O)c1nnc(NC(=O)C2CC2)cc1Nc1cccc2c1N(C)C([2H])([2H])c1cc(F)cnc1-2`
6.52 to 7.52

###

This section presents molecules with their documented IC50 values.
Target: JAK1-JH1 (Homo sapiens, UniProt P23458)
Construct: using a recombinant purified His or GST-tagged catalytic domain for each enzyme
Sequence (P23458 875-1153 limits assumed): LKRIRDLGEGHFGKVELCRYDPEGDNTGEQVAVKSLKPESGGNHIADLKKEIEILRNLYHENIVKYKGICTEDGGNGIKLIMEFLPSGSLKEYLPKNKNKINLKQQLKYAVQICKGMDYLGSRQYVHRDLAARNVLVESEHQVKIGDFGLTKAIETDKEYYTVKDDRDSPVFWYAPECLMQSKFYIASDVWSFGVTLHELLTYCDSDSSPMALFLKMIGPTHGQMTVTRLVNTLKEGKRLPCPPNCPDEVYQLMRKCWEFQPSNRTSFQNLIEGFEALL
Experiment: HTRF-based selectivity assay, JAK1 catalytic domain
Details: kinase domain (JH1), 21.43 μM ATP

{"STRUCTURE": "[2H]C([2H])([2H])NC(=O)c1nnc(NC(=O)C2CC2)cc1Nc1cccc2c1N(C)Cc1cccnc1-2", "MEASUREMENT_TARGET": "JAK1-JH1 (Homo sapiens, UniProt P23458)", "REPORTED_RESULT": "> 1000 nM"}
{"STRUCTURE": "[2H]C([2H])([2H])NC(=O)c1cnc(NC(=O)C2CC2)cc1Nc1cccc2c1N(C)Cc1cc(F)cnc1-2", "MEASUREMENT_TARGET": "JAK1-JH1 (Homo sapiens, UniProt P23458)", "REPORTED_RESULT": "> 1000 nM"}
{"STRUCTURE": "[2H]C([2H])([2H])NC(=O)c1nnc(Nc2ccc(F)cn2)cc1Nc1cccc2c1N(C)Cc1cccnc1-2", "MEASUREMENT_TARGET": "JAK1-JH1 (Homo sapiens, UniProt P23458)", "REPORTED_RESULT": "> 1000 nM"}
{"STRUCTURE": "[2H]C([2H])([2H])NC(=O)c1cnc(NC(=O)C2CC2)cc1Nc1cccc2c1N(C)Cc1cccnc1-2", "MEASUREMENT_TARGET": "JAK1-JH1 (Homo sapiens, UniProt P23458)", "REPORTED_RESULT": "> 1000 nM"}

Note down IC50 recorded for `[2H]C([2H])([2H])NC(=O)c1nnc(NC(=O)C2CC2)cc1Nc1cccc2c1N(C([2H])([2H])[2H])Cc1nccnc1-2`
> 1000 nM

Note down IC50 recorded for `[2H]C([2H])([2H])NC(=O)c1nnc(NC(=O)C2CC2)cc1Nc1cccc2c1N(C)Cc1cnn(C)c(=O)c1-2`
> 1000 nM

Note down IC50 recorded for `[2H]C([2H])([2H])NC(=O)c1cnc(NC(=O)C2CC2)cc1Nc1cccc2c1N(C)Cc1cncnc1-2`
300 to 1000 nM

Note down IC50 recorded for `[2H]C([2H])([2H])NC(=O)c1cnc(NC(=O)C2CC2)cc1Nc1cccc2c1N(C([2H])([2H])[2H])Cc1nccnc1-2`
> 1000 nM

Note down IC50 recorded for `[2H]C([2H])([2H])NC(=O)c1nnc(NC(=O)C2CC2)cc1Nc1cccc2c1N(C)Cc1cncnc1-2`
300 to 1000 nM

Note down IC50 recorded for `[2H]C([2H])([2H])NC(=O)c1cnc(NC(=O)C2CC2)cc1Nc1cccc2c1N(C)Cc1nccnc1-2`
> 1000 nM

Note down IC50 recorded for `[2H]C([2H])([2H])NC(=O)c1cnc(NC(=O)C2CC2)cc1Nc1cccc2c1N(C)Cc1cnn(C)c(=O)c1-2`
> 1000 nM

Note down IC50 recorded for `[2H]C([2H])([2H])NC(=O)c1nnc(NC(=O)C2CC2)cc1Nc1cccc2c1N(C)Cc1cc(F)cnc1-2`
> 1000 nM

Note down IC50 recorded for `[2H]C([2H])([2H])NC(=O)c1nnc(NC(=O)C2CC2)cc1Nc1cccc2c1N(C)Cc1nccnc1-2`
> 1000 nM

###

This section presents compounds with their documented IC50 values.
System: TYK2 Pseudokinase (JH2)
Assay: HEK-Blue IFNα/β reporter assay (SEAP) for profiling TYK2 pseudokinase (JH2) inhibition
Type: cell-based
Conditions: HEK-Blue IFNα/β cells, 1 ng/mL human recombinant IFNα, read-out: IFNα IC50 (TYK2 inhibitory activity)

Note down IC50 recorded for `[2H]C([2H])([2H])NC(=O)c1cnc(NC(=O)C2CC2)cc1Nc1cccc2c1N(C)Cc1cnn(C)c(=O)c1-2`
< 30 nM

Note down IC50 recorded for `[2H]C([2H])([2H])NC(=O)c1cnc(NC(=O)C2CC2)cc1Nc1cccc2c1N(C)Cc1cncnc1-2`
< 30 nM

Note down IC50 recorded for `[2H]C([2H])([2H])NC(=O)c1nnc(Nc2ccc(F)cn2)cc1Nc1cccc2c1N(C)Cc1cccnc1-2`
< 30 nM

###

System: TYK2 Pseudokinase (JH2)
Experiment: HEK-Blue IFNα/β reporter assay (SEAP) for profiling TYK2 pseudokinase (JH2) inhibition
Type: cell-based
Details: HEK-Blue IFNα/β cells, 1 ng/mL human recombinant IFNα, read-out: IFNα IC50 (TYK2 inhibitory activity)
This section presents compounds with their documented IC50 values.

Answered examples (3):
{"STRUCTURE": "[2H]C([2H])([2H])NC(=O)c1cnc(NC(=O)C2CC2)cc1Nc1nccc2c1N(C)Cc1nccnc1-2", "IC50": "< 0.03 µM"}
{"STRUCTURE": "[2H]C([2H])([2H])NC(=O)c1nnc(NC(=O)C2CC2)cc1Nc1cccc2c1N(C)Cc1nccnc1-2", "IC50": "< 0.03 µM"}
{"STRUCTURE": "CNC(=O)c1cnc(NC(=O)C2CC2)cc1Nc1cccc2c1N(C)Cc1cccnc1-2", "IC50": "< 0.03 µM"}

Output reported IC50 of the compound `[2H]C([2H])([2H])NC(=O)c1nnc(NC(=O)C2CC2)cc1Nc1cccc2c1N(C)Cc1cncnc1-2` on TYK2 Pseudokinase (JH2).
< 0.03 µM

Output reported IC50 of the compound `[2H]C([2H])([2H])NC(=O)c1cnc(NC(=O)C2CC2)cc1Nc1cccc2c1N(C)Cc1cc(F)cnc1-2` on TYK2 Pseudokinase (JH2).
< 0.03 µM

Output reported IC50 of the compound `[2H]C([2H])([2H])NC(=O)c1cnc(NC(=O)C2CC2)cc1Nc1cccc2c1N(C([2H])([2H])[2H])Cc1nccnc1-2` on TYK2 Pseudokinase (JH2).
< 0.03 µM

Output reported IC50 of the compound `[2H]C([2H])([2H])NC(=O)c1nnc(NC(=O)C2CC2)cc1Nc1cccc2c1N(C([2H])([2H])[2H])Cc1nccnc1-2` on TYK2 Pseudokinase (JH2).
< 0.03 µM

###

Tested on: TYK2 Pseudokinase (JH2)
Assay: HEK-Blue IFNα/β reporter assay (SEAP) for profiling TYK2 pseudokinase (JH2) inhibition
Type: cell-based
Settings: HEK-Blue IFNα/β cells, 1 ng/mL human recombinant IFNα, read-out: IFNα IC50 (TYK2 inhibitory activity)
pIC50: −log10 of the molar value.
This section presents compounds with their documented pIC50 values.

Answered examples (6):
{"STRUCTURE": "[2H]C([2H])([2H])NC(=O)c1nnc(NC(=O)C2CC2)cc1Nc1cccc2c1N(C)Cc1cc(F)cnc1-2", "pIC50": "6.52 to 7.52"}
{"STRUCTURE": "[2H]C([2H])([2H])NC(=O)c1cnc(NC(=O)C2CC2)cc1Nc1cccc2c1N(C)C([2H])([2H])c1ccc(C(F)(F)F)nc1-2", "pIC50": "6.00 to 6.52"}
{"STRUCTURE": "[2H]C([2H])([2H])NC(=O)c1cnc(NC(=O)C2CC2)cc1Nc1cccc2c1N(C)C([2H])([2H])c1cc(F)cnc1-2", "pIC50": "6.52 to 7.52"}
{"STRUCTURE": "[2H]C([2H])([2H])NC(=O)c1cnc(NC(=O)C2CC2)cc1Nc1cccc2c1N(C)C([2H])([2H])c1ccc(C)nc1-2", "pIC50": "6.52 to 7.52"}
{"STRUCTURE": "[2H]C([2H])([2H])NC(=O)c1cnc(NC(=O)C2CC2)cc1Nc1nccc2c1N(C)Cc1cccnc1-2", "pIC50": "> 7.52"}
{"STRUCTURE": "[2H]C([2H])([2H])NC(=O)c1nnc(NC(=O)C2CC2)cc1Nc1cccc2c1N(C)Cc1cnn(C)c(=O)c1-2", "pIC50": "> 7.52"}

Note down pIC50 recorded for `[2H]C([2H])([2H])NC(=O)c1cnc(NC(=O)C2CC2)cc1Nc1cccc2c1N(C)Cc1nccnc1-2`
> 7.52
